From: patent US9511073B2

- Tested on: Staphylococcus aureus (Isolate ID ATCC 29213)
- test.protocol: Bacterial assay: MIC by broth microdilution or agar dilution (CLSI), S. aureus ATCC 29213
- Format: cell-based
- settings: Staphylococcus aureus, ATCC29213, read-out: S. aureus MIC (μg/mL) Activity Range, S. aureus (ATCC29213)
measurement.kind: MIC

input: Record request: MIC value, item CC(=O)OCC(Oc1ccc(F)c(C(N)=O)c1F)c1nc(-c2ccc(C(F)(F)F)cn2)c(Br)o1 (stereo not drawn)
output: > 16 µg/mL

input: // lookup MIC for CN(C)C(=O)CCC(Oc1ccc(F)c(C(N)=O)c1F)c1nc(-c2ccc(C(F)(F)F)cc2)c(Br)o1 (stereo not drawn)
output: < 0.25 µg/mL

input: // returns reported MIC for input NC(=O)c1c(F)ccc(OC(C(N)=O)c2nc(-c3ccc(Cl)cc3)cs2)c1F (stereo not drawn)
output: 1 to 16 µg/mL

input: # lookup: MIC of NC(=O)c1c(F)ccc(O[C@@H](CO)c2nc(-c3ccc(C(F)(F)F)cc3)c(Br)o2)c1F (single isomer, unassigned) [Compound 38A]
output: 1 to 16 µg/mL

input: What does the data say about its MIC? Entry: NC(=O)c1c(F)ccc(OC(COC(=O)Nc2nnn[nH]2)c2nc(-c3ccc(C(F)(F)F)cc3)c(Br)o2)c1F (stereo not drawn)
output: > 16 µg/mL

input: I would be grateful if you could share the reported MIC for NC(=O)c1c(F)ccc(OC(CO)c2nc(-c3ccc(Br)s3)c(Br)o2)c1F (stereo not drawn) .
output: 0.25 to 1 µg/mL

input: # lookup: MIC of NC(=O)c1c(F)ccc(OC(CO)c2nc(-c3ccc(Cl)nc3)c(Br)o2)c1F (stereo not drawn)
output: 1 to 16 µg/mL

input: Value lookup for MIC; key = NC(=O)c1c(F)ccc(OC(CNC(=O)CCC(=O)O)c2nc(-c3ccc(C(F)(F)F)cc3)c(Br)o2)c1F (stereo not drawn)
output: 1 to 16 µg/mL

input: Need MIC, item NC(=O)c1c(F)ccc(OC(CO)c2nc(-c3ccc(C(=O)O)cc3)c(Br)o2)c1F (stereo not drawn)
output: > 16 µg/mL

input: Requested read-out: MIC. Entry: Cn1cncc1CNC(=O)OCC(Oc1ccc(F)c(C(N)=O)c1F)c1nc(-c2ccc(C(F)(F)F)cc2)c(Br)o1 (stereo not drawn)
output: 1 to 16 µg/mL

input: So what does the record say about MIC for NC(=O)c1c(F)ccc(O[C@H](CO)c2nc(-c3ccc4c(c3)CCO4)c(Br)o2)c1F [Compound 253B] ?
output: 1 to 16 µg/mL

input: Any idea what its MIC is? The compound is CCOC(=O)C(Oc1ccc(F)c(C(N)=O)c1F)c1nc(-c2ccc(Cl)cc2)cs1 (stereo not drawn)
output: < 0.25 µg/mL

input: Consider the compound NC(=O)c1c(F)ccc(OC(CO)c2nc(-c3ccc(Cl)cc3)cs2)c1F (stereo not drawn) and give its measured MIC.
output: 0.25 to 1 µg/mL

input: Could you share which MIC value was measured for NC(=O)c1c(F)ccc(O[C@H](CO)c2nc(-c3cncs3)c(Br)o2)c1F [Compound 247B] ?
output: > 16 µg/mL

input: Data request, read-out MIC, for NC(=O)c1c(F)ccc(OC(CO)c2nc(-c3ccc(C(F)(F)F)cc3)oc2Br)c1F (stereo not drawn)
output: 1 to 16 µg/mL

###

- Tested on: Staphylococcus aureus (Isolate ID ATCC 29213)
- test.protocol: Bacterial assay: MIC by broth microdilution or agar dilution (CLSI), S. aureus ATCC 29213
- Assay type: cell-based
- settings: Staphylococcus aureus, ATCC29213, read-out: S. aureus MIC (μg/mL) Activity Range, S. aureus (ATCC29213)
measurement.kind: MIC

input: Give the reported MIC for Cn1cc(CNC(=O)OCC(Oc2ccc(F)c(C(N)=O)c2F)c2nc(-c3ccc(C(F)(F)F)cc3)c(Br)o2)cn1 (stereo not drawn) [Compound 198] (system: Staphylococcus aureus (Isolate ID ATCC 29213)).
output: 0.25 to 1 µg/mL

input: For Staphylococcus aureus (Isolate ID ATCC 29213), provide MIC of COCC(Oc1ccc(F)c(C(N)=O)c1F)c1nc(-c2ccc(C(F)(F)F)cc2)c(Br)o1 (stereo not drawn) [Compound 103] please.
output: 0.25 to 1 µg/mL

input: Which MIC is reported with Staphylococcus aureus (Isolate ID ATCC 29213) for this entry: NC(=O)c1c(F)ccc(OC(CO)c2csc(-c3ccc(C(F)(F)F)cc3)n2)c1F (stereo not drawn) [Compound 126] ?
output: 1 to 16 µg/mL

input: Any idea what MIC came out for NC(=O)c1c(F)ccc(O[C@H](CO)c2nc(-c3ccc(OC(F)F)cc3)c(Br)o2)c1F [Compound 273B] on Staphylococcus aureus (Isolate ID ATCC 29213)?
output: < 0.25 µg/mL

input: Which measured MIC belongs to CC(=O)OCC(Oc1ccc(F)c(C(N)=O)c1F)c1nc(-c2ccc(C#N)cc2)c(Br)o1 (stereo not drawn) [Compound 76] , tested on Staphylococcus aureus (Isolate ID ATCC 29213)?
output: 1 to 16 µg/mL

input: Hello, I am looking for reported MIC with Staphylococcus aureus (Isolate ID ATCC 29213) for NCC(Oc1ccc(F)c(C(N)=O)c1F)c1nc(-c2ccc(C(F)(F)F)cc2)co1 (stereo not drawn) [Compound 281] . Could you help?
output: > 16 µg/mL

input: What value of MIC on Staphylococcus aureus (Isolate ID ATCC 29213) does Cc1cc(CNC(=O)OCC(Oc2ccc(F)c(C(N)=O)c2F)c2nc(-c3ccc(C(F)(F)F)cc3)c(Br)o2)nn1C (stereo not drawn) [Compound 213] have?
output: 0.25 to 1 µg/mL

input: Lookup: MIC / Staphylococcus aureus (Isolate ID ATCC 29213) / CN(C)C(=O)CC(Oc1ccc(F)c(C(N)=O)c1F)c1nc(-c2ccc(C(F)(F)F)cc2)c(Br)o1 (stereo not drawn) [Compound 88]
output: 1 to 16 µg/mL

input: Notebook: pull reported MIC for Staphylococcus aureus (Isolate ID ATCC 29213), entry C=CCOC(=O)CCC(=O)OCC(Oc1ccc(F)c(C(N)=O)c1F)c1nc(-c2ccc(C(F)(F)F)cc2)c(Br)o1 (stereo not drawn) [Compound 70]
output: 0.25 to 1 µg/mL

input: Query for Staphylococcus aureus (Isolate ID ATCC 29213): what MIC does the record show for NC(=O)c1c(F)ccc(OC(CO)c2nc(-c3ccccc3F)c(Br)o2)c1F (stereo not drawn) [Compound 229] ?
output: > 16 µg/mL

input: Record NC(=O)c1c(F)ccc(OC(CNC(=O)c2ccccn2)c2nc(-c3ccc(C(F)(F)F)cc3)c(Br)o2)c1F (stereo not drawn) [Compound 296] : what is its MIC with Staphylococcus aureus (Isolate ID ATCC 29213)?
output: < 0.25 µg/mL

input: What measured MIC is associated with CCc1nc([C@@H](CO)Oc2ccc(F)c(C(N)=O)c2F)oc1Br [Compound 275B] on Staphylococcus aureus (Isolate ID ATCC 29213)?
output: > 16 µg/mL

input: Look up MIC with Staphylococcus aureus (Isolate ID ATCC 29213) for this compound: Cc1nnc(CCC(Oc2ccc(F)c(C(N)=O)c2F)c2nc(-c3ccc(C(F)(F)F)cc3)c(Br)o2)o1 (stereo not drawn) [Compound 97]
output: 1 to 16 µg/mL

input: Reported MIC for Staphylococcus aureus (Isolate ID ATCC 29213), given COCCNC(=O)OCC(Oc1ccc(F)c(C(N)=O)c1F)c1nc(-c2ccc(C(F)(F)F)cc2)c(Br)o1 (stereo not drawn) [Compound 164] ?
output: 0.25 to 1 µg/mL

input: Please tell me: MIC of CC(=O)OCC(OC(C)=O)C(Oc1ccc(F)c(C(N)=O)c1F)c1nc(-c2ccc(C(F)(F)F)cc2)c(Br)o1 (stereo not drawn) [Compound 219] , system Staphylococcus aureus (Isolate ID ATCC 29213)?
output: > 16 µg/mL

###

- Tested on: Staphylococcus aureus (Isolate ID ATCC 29213)
- test.protocol: Bacterial assay: MIC by broth microdilution or agar dilution (CLSI), S. aureus ATCC 29213
- Assay type: cell-based
- settings: Staphylococcus aureus, ATCC29213, read-out: S. aureus MIC (μg/mL) Activity Range, S. aureus (ATCC29213)
measurement.kind: MIC

input: Report MIC for CN1CCN(C(=O)C(Oc2ccc(F)c(C(N)=O)c2F)c2nc(-c3ccc(Cl)cc3)cs2)CC1 (centres unmarked) please.
output: 1 to 16 µg/mL

input: What value of MIC has been reported for the following compound? Cn1cccc1CNC(=O)OCC(Oc1ccc(F)c(C(N)=O)c1F)c1nc(-c2ccc(C(F)(F)F)cc2)c(Br)o1 (centres unmarked)
output: 0.25 to 1 µg/mL

input: Quick one: MIC of CC(=O)OCC(Oc1ccc(F)c(C(N)=O)c1F)c1nc(-c2ccc(S(C)(=O)=O)cc2)c(Br)o1 (centres unmarked) ?
output: > 16 µg/mL

input: What value of measured MIC is listed for Cc1nnc(CNC(=O)OCC(Oc2ccc(F)c(C(N)=O)c2F)c2nc(-c3ccc(C(F)(F)F)cc3)c(Br)o2)o1 (centres unmarked) ?
output: 0.25 to 1 µg/mL

input: For the compound shown here, NC(=O)c1c(F)ccc(OC(COC(=O)N2CCNCC2)c2nc(-c3ccc(C(F)(F)F)cc3)c(Br)o2)c1F (centres unmarked) , give the reported MIC.
output: 1 to 16 µg/mL

input: Data request, read-out MIC, for CN(C)C(=O)C(Oc1ccc(F)c(C(N)=O)c1F)c1nc(-c2ccc(Cl)cc2)cs1 (centres unmarked)
output: 1 to 16 µg/mL

input: # query: MIC of entry NC(=O)c1c(F)ccc(OC(CO)c2nc(-c3ccc(F)cc3F)c(Br)o2)c1F (racemic)
output: < 0.25 µg/mL

input: What value of MIC has been reported for the following compound? COc1ccc(CCc2csc(C(CO)Oc3ccc(F)c(C(N)=O)c3F)n2)cc1 (centres unmarked)
output: 1 to 16 µg/mL

input: # query: MIC of entry NC(=O)c1c(F)ccc(OC(CO)c2nc(-c3ccc(C(F)(F)F)cc3)c(C3CC3)o2)c1F (centres unmarked)
output: 1 to 16 µg/mL

input: Which MIC is reported for this compound? NC(=O)CCC(Oc1ccc(F)c(C(N)=O)c1F)c1nc(-c2ccc(C(F)(F)F)cc2)c(Br)o1 (centres unmarked)
output: 0.25 to 1 µg/mL

input: Which MIC is listed for CS(=O)(=O)NCC(Oc1ccc(F)c(C(N)=O)c1F)c1nc(-c2ccc(C(F)(F)F)cc2)c(Br)o1 (centres unmarked) ?
output: 1 to 16 µg/mL

input: Look at this compound and give its reported MIC. NC(=O)c1c(F)ccc(OC(COCCO)c2nc(-c3ccc(C(F)(F)F)cc3)c(Br)o2)c1F (centres unmarked)
output: 0.25 to 1 µg/mL

input: Param item = NC(=O)c1c(F)ccc(OC(CO)c2nc(-c3ccc(C(F)(F)F)cc3)sc2Br)c1F (centres unmarked) ; retrieve measured MIC.
output: > 16 µg/mL

input: Item CN(Cc1ccncn1)C(=O)OCC(Oc1ccc(F)c(C(N)=O)c1F)c1nc(-c2ccc(C(F)(F)F)cc2)c(Br)o1 (centres unmarked) has what recorded MIC?
output: 0.25 to 1 µg/mL

input: Look at this compound and give its reported MIC. NC(=O)c1c(F)ccc(OC(CNC(=O)Cc2cccnc2)c2nc(-c3ccc(C(F)(F)F)cc3)c(Br)o2)c1F (centres unmarked)
output: 1 to 16 µg/mL

input: Give its MIC value. Item: CC(Oc1ccc(F)c(C(N)=O)c1F)c1nc(-c2ccc(OC(F)(F)F)cc2)c(Cl)o1 (centres unmarked)
output: < 0.25 µg/mL

input: Dear colleague, I am looking for the recorded MIC of the following compound: COc1ncc(-c2nc([C@@H](CO)Oc3ccc(F)c(C(N)=O)c3F)oc2Br)cn1 [Compound 257B]
output: > 16 µg/mL

input: What does the record list as MIC for NC(=O)c1c(F)ccc(OC(COC(=O)NCCn2ccccc2=O)c2nc(-c3ccc(C(F)(F)F)cc3)c(Br)o2)c1F (centres unmarked) ?
output: 0.25 to 1 µg/mL

input: Any idea what MIC was measured for NC(=O)c1c(F)ccc(OC(COC(=O)Nc2ccncc2)c2nc(-c3ccc(C(F)(F)F)cc3)c(Br)o2)c1F (centres unmarked) ?
output: 0.25 to 1 µg/mL

input: Name the reported MIC value associated with the compound CCOc1cnc2sc(C(C)Oc3ccc(F)c(C(N)=O)c3F)nc2c1 (centres unmarked)
output: 1 to 16 µg/mL

input: Which MIC value belongs to NC(=O)c1c(F)ccc(OC(COC(=O)NCCC(=O)O)c2nc(-c3ccc(C(F)(F)F)cc3)c(Br)o2)c1F (centres unmarked) ?
output: 1 to 16 µg/mL

input: Consider the compound shown here: CC(=O)NNC(=O)CC(Oc1ccc(F)c(C(N)=O)c1F)c1nc(-c2ccc(C(F)(F)F)cc2)c(Br)o1 (centres unmarked) What is its recorded MIC?
output: 1 to 16 µg/mL

input: Need MIC of CN(CC(=O)OCC(Oc1ccc(F)c(C(N)=O)c1F)c1nc(-c2ccc(C(F)(F)F)cc2)c(Br)o1)C(=O)OC(C)(C)C (centres unmarked) , thanks.
output: 0.25 to 1 µg/mL

input: Find the recorded MIC belonging to COCCn1cnnc1CNC(=O)OCC(Oc1ccc(F)c(C(N)=O)c1F)c1nc(-c2ccc(C(F)(F)F)cc2)c(Br)o1 (centres unmarked) and report it.
output: 1 to 16 µg/mL

input: Report MIC for COc1ccc(-c2coc(C(CO)Oc3ccc(F)c(C(N)=O)c3F)n2)c(F)c1 (centres unmarked) please.
output: > 16 µg/mL

input: Given the compound COc1ccc(-c2nc(C(COC(C)=O)Oc3ccc(F)c(C(N)=O)c3F)oc2Br)cc1 (centres unmarked) , what is its reported MIC?
output: 1 to 16 µg/mL

input: Sample N#Cc1ccc(-c2nc([C@@H](CO)Oc3ccc(F)c(C(N)=O)c3F)oc2Br)cn1 [Compound 249B] — what was its MIC?
output: 1 to 16 µg/mL

input: Given the compound NC(=O)c1c(F)ccc(OC(CNC(=O)c2ccccc2)c2nc(-c3ccc(C(F)(F)F)cc3)co2)c1F (centres unmarked) , what is its reported MIC?
output: 1 to 16 µg/mL

input: What does the record list as MIC for C=CCOP(=O)(O)OCC(Oc1ccc(F)c(C(N)=O)c1F)c1nc(-c2ccc(C(F)(F)F)cc2)c(Br)o1 (centres unmarked) ?
output: > 16 µg/mL
